# ASSAY_INFO: cytotoxicity test, neutral red dye uptake method
# Format: cell-based
# MEASUREMENT_CONDITIONS: human, 2.2.15 cells, 2.2.15 cell culture, A510, read-out: IC50 (cytotoxicity)

MOLECULE: COC(=O)C1=CO[C@@H](OCc2ccccc2)[C@@H]2C(/C=N/OC(C)(C)C)=CC[C@H]12 [Compound (I)c]
UNIT_DESCRIPTOR: µM
RESULT_COMPARATOR: =
CC50 at 216 h: 180
--
MOLECULE: COC(=O)C1=CO[C@@H]2O[C@H](OC)[C@@H]3CC[C@H]1[C@H]23 [Compound (I)b]
UNIT_DESCRIPTOR: µM
RESULT_COMPARATOR: =
CC50 at 216 h: 90
--
MOLECULE: COC(=O)C1=CO[C@H](OCc2ccccc2)[C@H]2[C@@H]1CC1OC(C)(C)OC12CNC(=O)Nc1cccnc1 (some centres unmarked) [Compound (I)d]
UNIT_DESCRIPTOR: µM
RESULT_COMPARATOR: =
CC50 at 216 h: 70
--
MOLECULE: Nc1ccn([C@H]2CC[C@@H](CO)O2)c(=O)n1 [ddC, dideoxy cytidine, reference compound]
UNIT_DESCRIPTOR: µM
RESULT_COMPARATOR: >
CC50 at 216 h: 30
--
MOLECULE: COC(=O)C1=CO[C@@H](OCc2ccccc2)[C@@H]2C(CN=[N+]=[N-])=CC[C@H]12 [Compound (I)a]
UNIT_DESCRIPTOR: µM
RESULT_COMPARATOR: =
CC50 at 216 h: 120

---

Measured Liver protection effect (GPT, %) by item
# Tested on: liver cells
# ASSAY_INFO: liver protection effect in carbon tetrachloride / D-galactosamine model, serum ALT (GPT) or AST in rats, oral for 4 days
# Assay type: in vivo
# MEASUREMENT_CONDITIONS: 100 mg/kg, p.o

COMPOUND: COC(=O)C1=CO[C@@H](OCc2ccccc2)[C@@H]2C(/C=N/OC(C)(C)C)=CC[C@H]12
Liver protection effect (GPT, %): 64%
--
COMPOUND: COC(=O)C1=CO[C@@H]2O[C@H](OC)[C@@H]3CC[C@H]1[C@H]23
Liver protection effect (GPT, %): 57%
--
COMPOUND: COC(=O)C1=CO[C@H](OCc2ccccc2)[C@H]2[C@@H]1CC1OC(C)(C)OC12CNC(=O)Nc1cccnc1 (stereo partly shown)
Liver protection effect (GPT, %): 74%
--
COMPOUND: COC(=O)C1=CO[C@@H](OCc2ccccc2)[C@@H]2C(CN=[N+]=[N-])=CC[C@H]12
Liver protection effect (GPT, %): 65%

---

# System: HBV
# ASSAY_INFO: inhibitory effect on HBV replication in 2.2.15 cell culture
# Assay type: cell-based
# MEASUREMENT_CONDITIONS: Hepatitis B virus, 216 h; 2.2.15 cell culture, 9 days treatment; read-out: ED50 (inhibitory effect on HBV replication)
Measured EC50 by item

COMPOUND: COC(=O)C1=CO[C@@H]2O[C@H](OC)[C@@H]3CC[C@H]1[C@H]23
EC50: 40 µM
//
COMPOUND: COC(=O)C1=CO[C@@H](OCc2ccccc2)[C@@H]2C(/C=N/OC(C)(C)C)=CC[C@H]12
EC50: 30 µM
//
COMPOUND: COC(=O)C1=CO[C@H](OCc2ccccc2)[C@H]2[C@@H]1CC1OC(C)(C)OC12CNC(=O)Nc1cccnc1 (stereo partly shown)
EC50: 20 µM
//
COMPOUND: COC(=O)C1=CO[C@@H](OCc2ccccc2)[C@@H]2C(CN=[N+]=[N-])=CC[C@H]12
EC50: 80 µM
